Biological target: human Edg-1(S1P1) (Homo sapiens, UniProt P21453)
Construct: expressed in transfected cells; host or cells: HEK-293
Sequence (P21453 whole entry): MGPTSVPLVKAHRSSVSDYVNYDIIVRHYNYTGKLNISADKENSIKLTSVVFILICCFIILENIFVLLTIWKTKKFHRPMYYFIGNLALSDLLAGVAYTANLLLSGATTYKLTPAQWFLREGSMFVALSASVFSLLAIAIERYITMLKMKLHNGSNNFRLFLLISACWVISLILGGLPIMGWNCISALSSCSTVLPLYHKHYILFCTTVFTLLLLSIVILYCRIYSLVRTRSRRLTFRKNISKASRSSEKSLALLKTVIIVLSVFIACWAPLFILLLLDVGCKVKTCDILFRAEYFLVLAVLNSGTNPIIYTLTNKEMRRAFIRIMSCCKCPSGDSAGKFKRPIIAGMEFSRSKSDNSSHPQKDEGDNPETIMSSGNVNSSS
Assay: Membrane system binding test: inhibition of [33P]-S1P binding to the membrane fraction of Edg-1(S1P1) gene transferred HEK-293 cells
Conditions: 10 μM compound; [33P]-S1P 0.1 nM; membrane fraction of Edg-1(S1P1) gene transferred HEK-293 cells; read-out: Membrane system binding test % inhibition (10 μM)
observed property: inhibition at 10 µM (%)

structure string: CCn1c(OC)nnc1[C@@H](C)NS(=O)(=O)c1cccc(OC)c1
system: human Edg-1(S1P1) (Homo sapiens, UniProt P21453)
inhibition at 10 µM [%]: 74.5
//
structure string: CCn1c(SCC(N)=O)nnc1[C@@H](C)NS(=O)(=O)c1ccc(Cl)cc1
system: human Edg-1(S1P1) (Homo sapiens, UniProt P21453)
inhibition at 10 µM [%]: 99.5
//
structure string: CCn1c(OC)nnc1[C@@H](C)NS(=O)(=O)c1ccc([N+](=O)[O-])cc1
system: human Edg-1(S1P1) (Homo sapiens, UniProt P21453)
inhibition at 10 µM [%]: 93.2
//
structure string: CCCOc1nnc([C@@H](C)NS(=O)(=O)c2ccc(C)cc2)n1CC
system: human Edg-1(S1P1) (Homo sapiens, UniProt P21453)
inhibition at 10 µM [%]: 88.5
//
structure string: CCn1c(OC)nnc1[C@@H](C)NS(=O)(=O)c1cccc(C(F)(F)F)c1
system: human Edg-1(S1P1) (Homo sapiens, UniProt P21453)
inhibition at 10 µM [%]: 87.7
//
structure string: CCn1c(OCCCCCCN(C)C)nnc1[C@@H](C)NS(=O)(=O)c1ccc(Cl)cc1
system: human Edg-1(S1P1) (Homo sapiens, UniProt P21453)
inhibition at 10 µM [%]: 107
//
structure string: CCn1c(OC)nnc1[C@@H](C)NS(=O)(=O)/C=C/c1ccccc1
system: human Edg-1(S1P1) (Homo sapiens, UniProt P21453)
inhibition at 10 µM [%]: 80.5
//
structure string: CCn1c(OC)nnc1[C@@H](C)NS(=O)(=O)c1cccc(Cl)c1C
system: human Edg-1(S1P1) (Homo sapiens, UniProt P21453)
inhibition at 10 µM [%]: 89.4
//
structure string: CCn1c(SCc2ccc(NC(C)=O)cc2)nnc1[C@@H](C)NS(=O)(=O)c1ccc(Cl)cc1
system: human Edg-1(S1P1) (Homo sapiens, UniProt P21453)
inhibition at 10 µM [%]: 90.4
//
structure string: CCn1c(SCc2ccncc2)nnc1[C@@H](C)NS(=O)(=O)c1ccc(Cl)cc1
system: human Edg-1(S1P1) (Homo sapiens, UniProt P21453)
inhibition at 10 µM [%]: 86.5

---

Molecular target: human Edg-1(S1P1) (Homo sapiens, UniProt P21453)
Construct: expressed in transfected cells; host or cells: HEK-293
Assay: Membrane system binding test: inhibition of [33P]-S1P binding to the membrane fraction of Edg-1(S1P1) gene transferred HEK-293 cells
Settings: 10 μM compound; [33P]-S1P 0.1 nM; membrane fraction of Edg-1(S1P1) gene transferred HEK-293 cells; read-out: Membrane system binding test % inhibition (10 μM)
observed property: inhibition at 10 µM (%)

compound: CCn1c(OC)nnc1[C@@H](C)NS(=O)(=O)c1ccc(Br)cc1
inhibition at 10 µM [%]: 93.3
//
compound: CCn1c(OC)nnc1[C@@H](C)NS(=O)(=O)c1cc(F)cc(F)c1
inhibition at 10 µM [%]: 52.4
//
compound: CCn1c(SC(C(=O)OC)c2ccccc2)nnc1[C@@H](C)NS(=O)(=O)c1ccc(Cl)cc1 (stereo partly shown)
inhibition at 10 µM [%]: 89.1
//
compound: CCn1c(OC)nnc1[C@@H](C)NS(=O)(=O)c1cccc(C(C)=O)c1
inhibition at 10 µM [%]: 62.8
//
compound: CCn1c(SCCn2ccnc2)nnc1[C@@H](C)NS(=O)(=O)c1ccc(Cl)cc1
inhibition at 10 µM [%]: 100

a = CCn1c(SC/C=C\COCc2ccccc2)nnc1[C@@H](C)NS(=O)(=O)c1ccc(Cl)cc1
b = CCn1c(OC)nnc1[C@@H](C)NS(=O)(=O)c1cc(Cl)sc1Cl
Input line: Hey, between a and b which has a smaller measured inhibition at 10 µM? Output the label that corresponds to your choice.
Output line: b
(b: 62.3%, a: 96.2%)
